Listed below: Ki values for each entry.
# MEASUREMENT TARGET: Synechococcus sp. HPPD "SEQ ID No. 5"
# ASSAY: HPLC assay of HPPD activity, in vitro kinetic properties
# EXPERIMENTAL SETUP: 2 mM HPP
VALUE KIND: Ki (µM)

CS(=O)(=O)c1ccc(C(=O)C2C(=O)CCCC2=O)c(Cl)c1COCC(F)(F)F : 1.2
CS(=O)(=O)c1cc(C(F)(F)F)ccc1C(=O)C(C#N)C(=O)C1CC1 (centres unmarked) : 12

Data origin: patent US20150159167A1
